System: Humulin® N (U40)
Experiment: Modified 10X Glycerin Stress Test (Mod.10X-GST): HMWP growth by size exclusion HPLC
Type: physicochemical, human
Details: Humulin® N with treated or untreated glycerin, 7 days at 30°C, Table 7
Procedure: One milliliter of Humulin® N (U40, Eli Lilly & Co., Indianapolis IN, USA) is spiked with about 160 mg (about 128 µl) of glycerin to be tested. This glycerin level is about ten times the normal level found in commercial products. Another milliliter of Humulin® N U40 is spiked with 128 µL of water. Both samples are stored at 30°C for 7 days. […] The HMWP growth in the sample is calculated as the HMWP level in the 30°C test sample minus the HMWP level in the water spiked control. […]
Reported Endpoint: Mod.10X-GST Test (%)

{"Compound": "OCC(O)CO [Sample 2, glycerin]", "Target Desc": "Humulin® N (U40)", "Reported Endpoint": "Mod.10X-GST Test", "Endpoint Value": 1.58}
{"Compound": "OCC(O)CO [Sample 1, glycerin]", "Target Desc": "Humulin® N (U40)", "Reported Endpoint": "Mod.10X-GST Test", "Endpoint Value": 1.84}
{"Compound": "OCC(O)CO [Sample 5, glycerin]", "Target Desc": "Humulin® N (U40)", "Reported Endpoint": "Mod.10X-GST Test", "Endpoint Value": -0.27}
{"Compound": "OCC(O)CO [Sample 6, glycerin]", "Target Desc": "Humulin® N (U40)", "Reported Endpoint": "Mod.10X-GST Test", "Endpoint Value": 4.68}
{"Compound": "OCC(O)CO [Sample 10, glycerin]", "Target Desc": "Humulin® N (U40)", "Reported Endpoint": "Mod.10X-GST Test", "Endpoint Value": -0.03}
{"Compound": "OCC(O)CO [Sample 7, glycerin]", "Target Desc": "Humulin® N (U40)", "Reported Endpoint": "Mod.10X-GST Test", "Endpoint Value": 3.65}
